TARGET: SARS-CoV-2 Delta (B.1.617.2) S1 (SARS-CoV-2 Delta (B.1.617.2), strain)
ASSAY METRIC: binding result

Req: I'd like to know its binding result. The binder in question is YB12-203 (antibody, V domains shown) VH: QIQLQQSGPGLVEPSQTLSLTCAISGDSVSSISAAWNWIRQSPSRGLEWLGRTYYRSKWYNDYAVSVKSRITINPDTSKNQFSLHLNSVTPEDTAVYYCARDHLRWDIVATSLEAFDIWGQGTMVTVSS VL: DIVMTQSPDSLAVSLGERATINCKSSQSVLFSSNNKNSLAWYQQKPGQPPKLLIYWASTRESGVPDRFSGSGSGTDFTLTISSLQAEDVAVYYCQQYHSSLLYTFGQGTKLEIK
Resp: binds

Req: Entry YB13-275 (antibody, V domains shown) V domain 1: QITLKESGPRLVKPTQTLTLTCTFSGFSLATAGMSVGWIRQPPGKALEWLALIYWDDDDRYSPSLKSRLTITKDTSRNQVVLTMTNMDPVDTATYYCIHPRFYSDPSGYYFIWGQGTMVTVSS V domain 2: SYELTQPPSVSVSPGQTARITCSGDALAKQYAYWYQQKPGQAPVQVMYKDGERPSGIPERFSGSKSGTTVTLTISAVQAEDEADYFCQSADNSGFYVFGTGTQVTVL please
Resp: binds
